Exercise: state measured melting point for each of the compounds provided.
Where a name gives a salt, the structure may show the parent alone.

For Cc1csc(-c2nc(CNC(=O)C3CCN(C)CC3)[nH]c2-c2ccc3ncsc3c2)n1 the compound record lists melting point as 204 to 205.5 °C

Recorded result, CCCCCCc1nc(-c2nc(C)cs2)c(-c2ccc3ncsc3c2)[nH]1 , melting point: 129 to 130.5 °C

// Cc1csc(-c2nc(CCC(=O)NC3CC3)[nH]c2-c2ccc3ncsc3c2)n1 : melting point value = 196.5 to 197 °C

Item: Cc1csc(-c2nc(CCCN3CCOCC3)[nH]c2-c2ccc3c(c2)OCO3)n1 (as salt: salt) | melting point: 118.5 to 128.5 °C

----------
Kindly supply the reported melting point values for the records listed here.

Please fill in: melting point reported for CCN(CC)C(=O)NCc1nc(-c2nc(C)cs2)c(-c2ccc3ncsc3c2)[nH]1 = 222.5 to 223 °C

Per the record, CNC(=O)NCc1nc(-c2nc(C)cs2)c(-c2ccc3ncsc3c2)[nH]1 has melting point of 239 to 239.5 °C

compound Cc1csc(C(=O)C(=O)c2ccc(F)cc2)n1 , melting point observed: 75 to 77 °C

Cc1csc(-c2nc(CNC(=O)NC(C)C)[nH]c2-c2ccc3ncsc3c2)n1 yielded melting point of 178.5 to 180 °C

The recorded melting point for entry Cc1csc(-c2nc(CCC(=O)NCCCN3CCN(C)CC3)[nH]c2-c2ccc3ncsc3c2)n1 equals 188 to 189 °C

# compound Cc1csc(-c2nc(CCC(=O)N3CCN(CCN4CCOCC4)CC3)[nH]c2-c2ccc3ncsc3c2)n1 ; its melting point = 164.5 to 166 °C

The value of melting point measured for the compound Cc1csc(-c2nc(COC(=O)N(C)C)[nH]c2-c2ccc3ncsc3c2)n1 turned out to be 181.5 to 182 °C

Briefly, melting point measured for CC(O)c1nc(-c2nc(-c3ccc(C(N)=O)cc3)[nH]c2-c2ccc3c(c2)OCO3)cs1 (centres unmarked) : 140 to 148 °C

----------
ASSAY_READOUT: melting point

// field: melting point; key: CCCCCOC(=O)NCc1nc(-c2nc(C)cs2)c(-c2ccc3ncsc3c2)[nH]1 ; value = 177.5 to 178.5 °C

// NC(=O)c1ccc(-c2nc(-c3nccs3)c(-c3ccc4c(c3)OCO4)[nH]2)cc1 : melting point value = 240 to 249 °C

Short answer for CCC(C)(C)C(=O)NCc1nc(-c2nc(C)cs2)c(-c2ccc3ncsc3c2)[nH]1 : melting point was 212.5 to 213.5 °C

The reported melting point of the molecule CCCNC(=O)c1nc(-c2nc(C)cs2)c(-c2ccc3c(c2)OCO3)[nH]1 was 199.6 to 200 °C

Query Cc1csc(-c2nc(C)n(Cc3ccc(OCCN(C)C)cc3)c2-c2ccc3ncsc3c2)n1 yields melting point of 146.5 to 148 °C

melting point reading for Cc1csc(-c2nc(CNC(=O)C3CCC3)[nH]c2-c2ccc3ncsc3c2)n1 : 199 to 200 °C

Lookup result for CCCC(=O)NCCc1nc(-c2nc(C)cs2)c(-c2ccc3c(c2)OCO3)[nH]1 ; measured melting point: 148 to 150 °C

Looking up Cc1csc(-c2nc(CNC(=O)CCO)[nH]c2-c2ccc3ncsc3c2)n1 , I see its melting point listed as 215 to 218.5 °C

Consider CNC(=O)OCc1nc(-c2nc(C)cs2)c(-c2ccc3ncsc3c2)[nH]1 . Its measured melting point is 158 to 159.5 °C

Looking up Cc1csc(-c2nc(CNC(=O)C3CCCCO3)[nH]c2-c2ccc3ncsc3c2)n1 (centres unmarked) , I found its melting point recorded as 220.5 to 222 °C

Per the records, this molecule ( CCCC(=O)NCc1nc(-c2nc(C)cs2)c(-c2ccc(OC)c(OCc3ccccc3)c2)[nH]1 ) has melting point equal to 176 to 177 °C

Recorded melting point (molecule Cc1csc(-c2nc(CCC(=O)NCCCN(C)C)[nH]c2-c2ccc3ncsc3c2)n1 ): 78.5 to 82.5 °C

Query COCCCC(=O)NCc1nc(-c2nc(C)cs2)c(-c2ccc3ncsc3c2)[nH]1 yields melting point of 186.5 to 190 °C

Record summary for Cc1csc(-c2nc(C)n(Cc3ccc(O)cc3)c2-c2ccc3ncsc3c2)n1 : reported melting point = 215.5 to 218.5 °C

Summary for this molecule, O=C(C(=O)c1nc(C(F)(F)F)cs1)c1ccc2ncsc2c1 : melting point is 163.5 to 164.5 °C

Entry Cc1csc(-c2nc(CNC(=O)C3CCOCC3)[nH]c2-c2ccc3ncsc3c2)n1 , melting point reported as 197 to 197.5 °C

The molecule identified as COc1ccc(Cn2c(C)nc(-c3nc(C)cs3)c2-c2ccc3ncsc3c2)cc1 registered its melting point at 144 to 145 °C
